Target or system Cannabinoid receptor 1 (Homo sapiens): recorded Ki listed per item.
Numbers only, in µM.

For orientation, consider the following solved cases.
- substance_smiles: "CCCCCc1cc(O)cc(OCCCCCCCC(=O)OC(CO)CO)c1"
  tested_system: "Cannabinoid receptor 1 (Homo sapiens)"
  measurement: 5.6
- substance_smiles: "CCCCC/C=C\\C/C=C\\C/C=C\\C/C=C\\CCCCOC(CO)CO"
  tested_system: "Cannabinoid receptor 1 (Homo sapiens)"
  measurement: 0.02
- substance_smiles: "CCCCCCC(C)(C)c1cc(O)cc(OCCCCCCCCOC(CO)CO)c1"
  tested_system: "Cannabinoid receptor 1 (Homo sapiens)"
  measurement: 0.27
- substance_smiles: "CCCCCCC(C)(C)c1cc(O)cc(OCCCCCCCCCCC(=O)OC(CO)CO)c1"
  tested_system: "Cannabinoid receptor 1 (Homo sapiens)"
  measurement: 0.01

// next entry
Sample CCCCCCC(C)(C)c1cc(O)cc(OCCCCCCCCCCOC(CO)CO)c1 — what was its Ki?
2.94
